- system.tested: AMPK-γ2 CBS1-2 (WT) (Homo sapiens, UniProt Q9UGJ0)
- Construct: the N-terminal pair (CBS1-2, residues 274-410); made in house; host or cells: E. coli BL21 (DE3)
- Sequence (Q9UGJ0 274-410): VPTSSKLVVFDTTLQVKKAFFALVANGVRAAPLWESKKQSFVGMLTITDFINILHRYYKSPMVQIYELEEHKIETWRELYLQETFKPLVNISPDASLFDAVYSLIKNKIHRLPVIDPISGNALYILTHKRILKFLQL
- measurement.protocol: Filter binding assay, GST-CBS domain fusion
measurement.type: Kd (µM)
Reply numerically in µM, unit not repeated.

Kd reported for this compound Nc1ncnc2c1ncn2[C@@H]1O[C@H](COP(=O)(O)O)[C@@H](O)[C@H]1O [AMP, adenosine monophosphate] : 53

====

- system.tested: AMPK-γ2 CBS3-4 construct (Homo sapiens)
- Construct: the C-terminal pair (CBS3-4, residues 430-556)
- measurement.protocol: Displacement of AMP by AMP-S (competitive binding assay)
- condition.context: read-out: Kd from single site competitive binding model
measurement.type: Kd (µM)
Answer format: numeric, µM implied, no suffix.

Value of Kd reported for the molecule Nc1ncnc2c1ncn2[C@@H]1O[C@H](COP(O)(O)=S)[C@@H](O)[C@H]1O [AMP-S, adenosine 5′-O-monothiophosphate] is 48

====

- system.tested: AMPK-γ2 CBS1-2 (H383R) (Homo sapiens, UniProt Q9UGJ0, H383R)
- Construct: the N-terminal pair (CBS1-2, residues 274-410)
- Sequence (Q9UGJ0 274-410 H383R): as the sequence (Q9UGJ0 274-410) above, with H110R counted along it
- measurement.protocol: Filter binding assay, GST-CBS domain fusion
- condition.context: single-site model
Answer each item with its documented Kd.
The reply should be a number in µM, with the unit left off.

Noted Kd for Nc1ncnc2c1ncn2[C@@H]1O[C@H](COP(=O)(O)O)[C@@H](O)[C@H]1O [AMP, adenosine monophosphate] , tested on AMPK-γ2 CBS1-2 (H383R) (Homo sapiens, UniProt Q9UGJ0, H383R): 1500

I looked up Nc1ncnc2c1ncn2[C@@H]1O[C@H](COP(=O)(O)OP(=O)(O)OP(=O)(O)O)[C@@H](O)[C@H]1O and its Kd for AMPK-γ2 CBS1-2 (H383R) (Homo sapiens, UniProt Q9UGJ0, H383R) was 1570

====

- system.tested: AMPK-γ2 CBS1-4 (H383R) (Homo sapiens, UniProt Q9UGJ0, H383R)
- Construct: all four CBS domains (CBS1-4, residues 274-569)
- Sequence (Q9UGJ0 274-569 H383R): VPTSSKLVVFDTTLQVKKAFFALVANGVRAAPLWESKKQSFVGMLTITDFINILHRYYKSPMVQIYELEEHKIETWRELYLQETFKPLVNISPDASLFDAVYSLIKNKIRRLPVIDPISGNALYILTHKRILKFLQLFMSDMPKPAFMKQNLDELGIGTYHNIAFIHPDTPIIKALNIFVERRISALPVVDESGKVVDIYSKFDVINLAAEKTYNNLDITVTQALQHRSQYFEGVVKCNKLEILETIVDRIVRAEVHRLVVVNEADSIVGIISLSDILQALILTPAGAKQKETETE
- measurement.protocol: Filter binding assay, GST-CBS domain fusion
- condition.context: two site Hill plot model; read-out: B0.5
measurement.type: Kd (µM)
Please reply with the bare figure in µM and do not write the unit itself.

Record Nc1ncnc2c1ncn2[C@@H]1O[C@H](COP(=O)(O)OP(=O)(O)OP(=O)(O)O)[C@@H](O)[C@H]1O has AMPK-γ2 CBS1-4 (H383R) (Homo sapiens, UniProt Q9UGJ0, H383R) Kd equal to 1470

Kindly note: AMPK-γ2 CBS1-4 (H383R) (Homo sapiens, UniProt Q9UGJ0, H383R), Nc1ncnc2c1ncn2[C@@H]1O[C@H](COP(=O)(O)O)[C@@H](O)[C@H]1O [AMP, adenosine monophosphate] , Kd value reported: 725

====

measurement.type: pKd
Note on pKd: it is the negative log10 of concentration, concentration in mol/L.

// compound Nc1ncnc2c1ncn2[C@@H]1O[C@H](COP(=O)(O)O)[C@@H](O)[C@H]1O [AMP, adenosine monophosphate] , assay IMPDH2 CBS domain pair (wild type) (Homo sapiens), pKd value: 3.36

====

- system.tested: AMPK-γ2 CBS1-2 (Lins) (Homo sapiens, UniProt Q9UGJ0, INS350L)
- Construct: fused on or other part: GST at the N-terminus followed by a hexaglycine spacer (pGEX-KG)
- Sequence (Q9UGJ0 with tags, fused parts or gaps INS350L): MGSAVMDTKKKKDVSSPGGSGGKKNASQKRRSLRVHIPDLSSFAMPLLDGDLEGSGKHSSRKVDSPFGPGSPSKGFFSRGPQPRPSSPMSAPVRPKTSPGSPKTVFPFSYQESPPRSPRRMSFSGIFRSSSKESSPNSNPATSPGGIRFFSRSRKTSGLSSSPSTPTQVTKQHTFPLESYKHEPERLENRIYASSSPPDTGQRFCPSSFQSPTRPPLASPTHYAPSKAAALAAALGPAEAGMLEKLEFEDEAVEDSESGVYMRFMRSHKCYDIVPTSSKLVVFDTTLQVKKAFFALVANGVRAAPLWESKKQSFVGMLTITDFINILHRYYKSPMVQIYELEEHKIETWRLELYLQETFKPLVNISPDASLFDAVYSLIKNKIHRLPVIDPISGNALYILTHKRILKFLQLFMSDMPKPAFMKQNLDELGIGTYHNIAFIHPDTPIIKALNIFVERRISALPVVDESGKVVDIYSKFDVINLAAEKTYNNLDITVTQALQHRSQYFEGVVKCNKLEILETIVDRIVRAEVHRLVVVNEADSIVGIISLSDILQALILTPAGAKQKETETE
- measurement.protocol: Filter binding assay, GST-CBS domain fusion
- condition.context: single-site model
measurement.type: pKd
Scale: pKd equals -log10([C]), with [C] in mol/L.

Entry Nc1ncnc2c1ncn2[C@@H]1O[C@H](COP(=O)(O)O)[C@@H](O)[C@H]1O [AMP, adenosine monophosphate] ; pKd = 4.20

Lab note: Nc1ncnc2c1ncn2[C@@H]1O[C@H](COP(=O)(O)OP(=O)(O)OP(=O)(O)O)[C@@H](O)[C@H]1O [ATP] gave pKd of 3.69

====

- system.tested: full-length IMPDH2 (wild type) (Homo sapiens, UniProt P12268)
- Construct: DNAs encoding residues 112-232 or the full-length protein (1-514) were amplified using human liver cDNA; His tag (vector pHAT20); made in house; host or cells: E. coli
- measurement.protocol: Enzymatic assay of IMPDH2
- Assay type: biochemical
- condition.context: read-out: A0.5 for ATP activation; as printed in discussion
measurement.type: EC50 (µM)
Give your result in µM as a bare value.

// field: EC50; key: Nc1ncnc2c1ncn2[C@@H]1O[C@H](COP(=O)(O)OP(=O)(O)OP(=O)(O)O)[C@@H](O)[C@H]1O [ATP] ; value = 440

====

- system.tested: recombinant á1â1γ2 heterotrimer (T400N) (Homo sapiens, UniProt Q9UGJ0, T400N)
- Sequence (Q9UGJ0 whole entry T400N): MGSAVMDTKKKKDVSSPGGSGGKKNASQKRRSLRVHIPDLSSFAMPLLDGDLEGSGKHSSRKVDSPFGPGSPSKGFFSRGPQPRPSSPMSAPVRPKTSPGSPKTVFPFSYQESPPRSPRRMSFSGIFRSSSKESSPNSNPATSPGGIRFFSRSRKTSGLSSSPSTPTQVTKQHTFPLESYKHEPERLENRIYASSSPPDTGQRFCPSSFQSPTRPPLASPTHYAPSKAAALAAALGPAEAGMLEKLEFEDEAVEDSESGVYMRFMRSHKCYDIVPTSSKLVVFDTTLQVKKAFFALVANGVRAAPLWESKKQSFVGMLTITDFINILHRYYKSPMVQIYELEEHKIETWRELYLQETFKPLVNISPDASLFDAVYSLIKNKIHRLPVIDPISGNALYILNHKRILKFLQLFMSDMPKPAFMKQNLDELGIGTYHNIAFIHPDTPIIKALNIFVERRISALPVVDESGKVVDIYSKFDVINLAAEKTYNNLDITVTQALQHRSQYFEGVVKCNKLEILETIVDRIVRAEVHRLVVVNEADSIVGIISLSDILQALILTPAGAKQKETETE
- Sequence (P54645 whole entry partner): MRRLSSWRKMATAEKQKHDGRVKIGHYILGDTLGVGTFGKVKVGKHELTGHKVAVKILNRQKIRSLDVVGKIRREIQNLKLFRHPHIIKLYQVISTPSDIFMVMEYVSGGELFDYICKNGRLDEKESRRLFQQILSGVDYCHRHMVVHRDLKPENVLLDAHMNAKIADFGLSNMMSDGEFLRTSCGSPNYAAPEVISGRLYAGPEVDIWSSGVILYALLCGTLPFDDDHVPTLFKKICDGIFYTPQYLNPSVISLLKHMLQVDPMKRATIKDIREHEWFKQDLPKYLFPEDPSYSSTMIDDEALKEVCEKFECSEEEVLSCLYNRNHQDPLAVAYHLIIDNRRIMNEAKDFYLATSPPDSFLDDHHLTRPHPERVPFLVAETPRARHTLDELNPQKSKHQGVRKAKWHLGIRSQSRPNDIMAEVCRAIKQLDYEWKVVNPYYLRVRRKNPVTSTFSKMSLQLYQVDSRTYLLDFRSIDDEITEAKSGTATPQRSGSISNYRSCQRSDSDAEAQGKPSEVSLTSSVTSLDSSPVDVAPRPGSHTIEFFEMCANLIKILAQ
- Sequence (P80386 whole entry partner): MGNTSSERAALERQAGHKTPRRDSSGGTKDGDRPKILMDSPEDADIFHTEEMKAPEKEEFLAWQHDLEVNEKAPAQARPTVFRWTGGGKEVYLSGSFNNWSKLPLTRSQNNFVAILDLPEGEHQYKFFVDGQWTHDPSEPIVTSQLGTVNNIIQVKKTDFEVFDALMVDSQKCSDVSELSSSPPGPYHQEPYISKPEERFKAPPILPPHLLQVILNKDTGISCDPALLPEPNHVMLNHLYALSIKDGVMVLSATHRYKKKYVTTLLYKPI
- measurement.protocol: AMPK heterotrimer kinase assay, activation by AMP
- condition.context: slow lysis; estimate somewhat less accurate; read-out: A0.5
measurement.type: EC50 (µM)
Field format: number, assumed µM, no unit text.

Lab note: molecule Nc1ncnc2c1ncn2[C@@H]1O[C@H](COP(=O)(O)O)[C@@H](O)[C@H]1O [AMP, adenosine monophosphate] tested on recombinant á1â1γ2 heterotrimer (T400N) (Homo sapiens, UniProt Q9UGJ0, T400N); recorded EC50 was 95

====

- system.tested: IMPDH2 CBS1-2 (R224P) (Homo sapiens, UniProt P12268, R224P)
- Construct: DNAs encoding residues 112-232 or the full-length protein (1-514) were amplified; His tag (pHAT20 vector); made in house; host or cells: E. coli
- measurement.protocol: Filter binding assay, isolated CBS domain pair
- condition.context: single-site model
measurement.type: pKd
pKd field: float, defined as -log10 of concentration (mol/L).

Lab book: pKd of Nc1ncnc2c1ncn2[C@@H]1O[C@H](COP(=O)(O)OP(=O)(O)OP(=O)(O)O)[C@@H](O)[C@H]1O noted as 3.35

====

- system.tested: full-length IMPDH2 (wild type) (Homo sapiens, UniProt P12268)
- Construct: DNAs encoding residues 112-232 or the full-length protein (1-514) were amplified using human liver cDNA; His tag (vector pHAT20); made in house; host or cells: E. coli
- measurement.protocol: Enzymatic assay of IMPDH2
- Assay type: biochemical
- condition.context: read-out: half-maximal effect
measurement.type: EC50

Looking up Nc1ncnc2c1ncn2[C@@H]1O[C@H](COP(=O)(O)OP(=O)(O)OP(=O)(O)O)[C@@H](O)[C@H]1O , I found its EC50 recorded as 440 µM

====

- system.tested: recombinant á1â1γ3 heterotrimer (Homo sapiens, UniProt Q9UGI9)
- Sequence (Q9UGI9 whole entry): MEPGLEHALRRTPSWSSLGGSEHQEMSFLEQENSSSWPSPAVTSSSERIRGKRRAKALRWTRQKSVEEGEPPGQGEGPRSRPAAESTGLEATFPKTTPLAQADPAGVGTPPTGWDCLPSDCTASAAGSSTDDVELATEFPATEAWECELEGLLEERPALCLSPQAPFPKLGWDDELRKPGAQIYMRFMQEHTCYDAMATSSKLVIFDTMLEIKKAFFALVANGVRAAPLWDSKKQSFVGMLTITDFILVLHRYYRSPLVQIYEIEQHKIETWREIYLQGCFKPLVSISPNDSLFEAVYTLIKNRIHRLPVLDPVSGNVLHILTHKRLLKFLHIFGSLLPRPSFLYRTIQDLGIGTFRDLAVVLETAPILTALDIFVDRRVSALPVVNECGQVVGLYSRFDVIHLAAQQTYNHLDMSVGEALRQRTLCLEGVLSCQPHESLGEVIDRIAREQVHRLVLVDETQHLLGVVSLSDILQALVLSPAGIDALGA
- Sequence (P54645 whole entry partner): as the sequence (P54645 whole entry partner) above
- Sequence (P80386 2-270 partner limits assumed): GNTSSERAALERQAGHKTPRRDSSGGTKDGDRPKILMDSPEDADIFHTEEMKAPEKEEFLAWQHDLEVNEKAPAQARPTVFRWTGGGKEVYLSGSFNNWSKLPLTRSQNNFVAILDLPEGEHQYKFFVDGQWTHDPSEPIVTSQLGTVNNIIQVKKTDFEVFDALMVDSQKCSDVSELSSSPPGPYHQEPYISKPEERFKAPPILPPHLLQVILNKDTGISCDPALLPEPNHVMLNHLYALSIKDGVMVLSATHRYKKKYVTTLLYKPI
- measurement.protocol: AMPK heterotrimer kinase assay, activation by AMP
- condition.context: approximate only; read-out: A0.5
measurement.type: pEC50
Remember, pEC50 is on a log scale: it is -log10 of the molar concentration.

Form field pEC50, entry Nc1ncnc2c1ncn2[C@@H]1O[C@H](COP(=O)(O)O)[C@@H](O)[C@H]1O [AMP, adenosine monophosphate] : 5.70
